Source of measurements: patent US20220177587A1

target: human CTLA-4 (human) (UniProt P16410); assay: flow cytometry, CHO cells expressing huCTLA-4
Sequence (P16410 36-223): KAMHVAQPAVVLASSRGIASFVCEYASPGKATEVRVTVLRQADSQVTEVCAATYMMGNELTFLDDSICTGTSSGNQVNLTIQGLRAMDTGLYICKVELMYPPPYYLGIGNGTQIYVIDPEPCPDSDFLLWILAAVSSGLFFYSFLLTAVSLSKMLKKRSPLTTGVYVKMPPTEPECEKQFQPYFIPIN
Measure Name: MFI at 33.3 nM (MFI)

A. variant CD80 IgV-Fc E35D/D46V/M47V/N48K/V68M (Fc fusion) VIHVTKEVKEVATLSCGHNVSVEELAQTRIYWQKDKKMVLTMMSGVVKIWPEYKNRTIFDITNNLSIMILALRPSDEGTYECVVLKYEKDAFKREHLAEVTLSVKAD
B. variant CD80 IgV-Fc E35D/M47V/K89N (Fc fusion) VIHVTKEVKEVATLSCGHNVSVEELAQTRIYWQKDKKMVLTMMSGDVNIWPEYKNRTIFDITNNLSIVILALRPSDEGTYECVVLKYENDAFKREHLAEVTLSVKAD
Q: Kindly identify the item with the lower MFI at 33.3 nM figure among these two: A and B Could you answer with the label of the item you picked?
Result: A
(A: 23900 MFI, B: 39300 MFI)
